Target: UniProt:V5T759
Sequence (V5T759 entry or part of it): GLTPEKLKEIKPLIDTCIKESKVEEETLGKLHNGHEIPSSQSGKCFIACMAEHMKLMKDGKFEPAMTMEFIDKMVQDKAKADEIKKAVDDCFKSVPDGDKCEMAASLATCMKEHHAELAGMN
Test: biochemical
Format: binding
Details: ligand concentration 12 (unit not given), replicate column 2 of 3
Catalogue of Fluorescence competitive binding assay, OBP2 (raw fluorescence reading) values
Just the number, please, no unit attached.

# return recorded Fluorescence competitive binding assay, OBP2 (raw fluorescence reading) for entry CCCCCCCCCCCCCCCCCCC [n-nonadecane]
24191

# return recorded Fluorescence competitive binding assay, OBP2 (raw fluorescence reading) for entry CCCCCCCCCCCCO [lauryl alcohol]
15043

====

Target: SfurOBP11 (Sogatella furcifera)
Sequence (V5T6E3 entry or part of it): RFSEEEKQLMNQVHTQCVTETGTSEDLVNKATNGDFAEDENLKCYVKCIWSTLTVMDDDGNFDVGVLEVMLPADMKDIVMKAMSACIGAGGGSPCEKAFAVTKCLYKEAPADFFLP
Assay: biochemical
Assay type: binding
Conditions: ligand concentration 12, replicate 1
Mark T only when Fluorescence intensity, fluorescence competitive binding assay, OBP11 stays strictly below 20000. Values equal to the cut-off are F.

>>> assigned_label("CCCCCCCCCCCCCCCCCCC [n-nonadecane]")
"F"

Please determine if C=C(C)C1CC=C(C)CC1 (single isomer, unassigned; (+)) [(+)-limonene] is below 20000 in terms of Fluorescence intensity, fluorescence competitive binding assay, OBP11.
T

Please determine if C/C(=C\CO)CCC[C@H](C)CCC[C@H](C)CCCC(C)C [plant alcohol] is below 20000 in terms of Fluorescence intensity, fluorescence competitive binding assay, OBP11.
T

Please determine if CCCCCCCCCCCCCCCCCC [n-octadecane] is below 20000 in terms of Fluorescence intensity, fluorescence competitive binding assay, OBP11.
F

Please determine if CCCCCC=O [caproaldehyde] is below 20000 in terms of Fluorescence intensity, fluorescence competitive binding assay, OBP11.
F

Please determine if CCC/C=C/CO [(E)-2-hexenol] is below 20000 in terms of Fluorescence intensity, fluorescence competitive binding assay, OBP11.
F

Please determine if C=C1CC/C=C(\C)CC[C@@H]2[C@@H]1CC2(C)C [β-caryophyllene] is below 20000 in terms of Fluorescence intensity, fluorescence competitive binding assay, OBP11.
F

Please determine if CCCCCCC=CCO [2-nonen-1-ol] is below 20000 in terms of Fluorescence intensity, fluorescence competitive binding assay, OBP11.
F

====

Molecular target: UniProt:V5T6E3
Experiment: biochemical
Format: binding
Settings: ligand concentration 14, replicate 2
# if value of Fluorescence intensity, fluorescence competitive binding assay, OBP11 reaches 20000, tag Satisfied; if it stays below, tag Not satisfied

>>> assigned_label("CCCCCCCCCCCCCCCCCCC [n-nonadecane]")
"Satisfied"
>>> assigned_label("CCCCCCCC [n-octane]")
"Satisfied"
>>> assigned_label("CCCCCCCCCCCCCCCCCC [n-octadecane]")
"Satisfied"
>>> assigned_label("OC1CCCCC1 [cyclohexanol]")
"Satisfied"
>>> assigned_label("CCCCCCCCCCCCC=O [tridecanal]")
"Satisfied"

Could you verify whether the entry CCCCCCCCCCCCCC [n-tetradecane] shows Fluorescence intensity, fluorescence competitive binding assay, OBP11 of no less than 20000?
Satisfied

Could you verify whether the entry C=C/C(C)=C/C/C=C(\C)CCC=C(C)C [α-farnesene] shows Fluorescence intensity, fluorescence competitive binding assay, OBP11 of no less than 20000?
Satisfied

Could you verify whether the entry C=CC(C)(O)CCC=C(C)CCC=C(C)C (mixture of isomers) [nerolidol] shows Fluorescence intensity, fluorescence competitive binding assay, OBP11 of no less than 20000?
Satisfied

Could you verify whether the entry CCCCCCCCCCC [n-hendecane] shows Fluorescence intensity, fluorescence competitive binding assay, OBP11 of no less than 20000?
Satisfied

Could you verify whether the entry COC(=O)c1ccccc1 [benzoic acid methylester] shows Fluorescence intensity, fluorescence competitive binding assay, OBP11 of no less than 20000?
Satisfied

Could you verify whether the entry CCC/C=C/CO [(E)-2-hexenol] shows Fluorescence intensity, fluorescence competitive binding assay, OBP11 of no less than 20000?
Satisfied

Could you verify whether the entry O=C(c1ccccc1)c1ccccc1 [benzophenone] shows Fluorescence intensity, fluorescence competitive binding assay, OBP11 of no less than 20000?
Not satisfied

Could you verify whether the entry CC/C=C\CCO [(Z)-3-hexenol] shows Fluorescence intensity, fluorescence competitive binding assay, OBP11 of no less than 20000?
Not satisfied

Could you verify whether the entry CCCCCCCCC=O [nonanal] shows Fluorescence intensity, fluorescence competitive binding assay, OBP11 of no less than 20000?
Satisfied

Could you verify whether the entry Cc1ccc(C(C)C)cc1 [4-isopropyltoluene] shows Fluorescence intensity, fluorescence competitive binding assay, OBP11 of no less than 20000?
Satisfied

Could you verify whether the entry Cc1cc(C(C)(C)C)c(O)c(C(C)(C)C)c1 [BHT(2,6-di-tert-butyl-4-methylphenol)] shows Fluorescence intensity, fluorescence competitive binding assay, OBP11 of no less than 20000?
Not satisfied

Could you verify whether the entry CCCCCCCCCCCCCCCC(=O)OC [MH(methyl hexadecanoate)] shows Fluorescence intensity, fluorescence competitive binding assay, OBP11 of no less than 20000?
Satisfied

Could you verify whether the entry CCCCCCCCCCCCO [lauryl alcohol] shows Fluorescence intensity, fluorescence competitive binding assay, OBP11 of no less than 20000?
Satisfied

Could you verify whether the entry CCCCCCC=CCO [2-nonen-1-ol] shows Fluorescence intensity, fluorescence competitive binding assay, OBP11 of no less than 20000?
Satisfied

Could you verify whether the entry CC1=CC[C@@H](C(C)(C)O)CC1 [α-terpineol] shows Fluorescence intensity, fluorescence competitive binding assay, OBP11 of no less than 20000?
Satisfied
